Recorded measurements of pKd, one per entry
- Tested On: DN-IV quality control recombinant protein (produced by the company) (dengue virus)
- Test Summary: BLI, antibody on AMC sensor
pKd field: float, defined as -log10 of concentration (mol/L).

Known results for binders:
Binder	Assay Endpoint	Reading
Mutation 1-43 (antibody, V domains shown) VH: EVQLQQPGPELVKPGASVKMSCKASGYTFTSSVIHWVRQKPGQGLEWIGYMNPYNDGIKYNEKFIGKAILTSDKSSSTAYMQLSSLTSEDSAVYYCTKEGLFYVMDYWGQGTSVTVSS VL: QIVLTQSPAIMSASPGEKVTMTCSATSSLSYMHWYQQKSGTSPKRWIYDTSKLASGVPVRFSGSGSGTSYSLTISSMEAEDAATYFCQYWRSDLPTFGAGTKLELKR	pKd	9.20
Mutation 1-27 (antibody, V domains shown) VH: EVQLQQPGPELVKPGASVKMSCKASGYTFTSTVIHWVRQKPGQGLEWIGYMNPYNDGLKYNEKFIGKAILTSDKSSSTAYMQLSSLTSEDSAVYYCTREGLFYVFDYWGQGTSVTVSS VL: QIVLTQSPAIMSASPGEKVTMTCSATSSVSYMHWYQQKSGTSPKRWIYDSSKLASGVPVRFSGSGSGTSYSLTISSMEAEDAATYFCQQWRSDLPTFGAGTKLELKR	pKd	8.45

Per the records, this binder ( Mutation 1-28 (antibody, V domains shown) VH: EVQLQQPGPELVKPGASVKMSCKASGYTFTSSVIHWVRQKPGQGLEWIGYMNPYNDGIKYNEKFIGKAILTSDKSSSTAYMQLSSLTSEDSAVYYCTKEGLFYVMDYWGQGTSVTVSS VL: QIVLTQSPAIMSASPGEKVTMTCSATSSVSYMHWYQQKSGTSPKRWIYDTSKLASGVPVRFSGSGSGTSYSLTISSMEAEDAATYFCQYWRSDLPTFGAGTKLELKR ) has pKd equal to 9.23
